- tgt: Rat NPY5 receptor (Rattus norvegicus, UniProt Q63634)
- Sequence (Q63634 whole entry): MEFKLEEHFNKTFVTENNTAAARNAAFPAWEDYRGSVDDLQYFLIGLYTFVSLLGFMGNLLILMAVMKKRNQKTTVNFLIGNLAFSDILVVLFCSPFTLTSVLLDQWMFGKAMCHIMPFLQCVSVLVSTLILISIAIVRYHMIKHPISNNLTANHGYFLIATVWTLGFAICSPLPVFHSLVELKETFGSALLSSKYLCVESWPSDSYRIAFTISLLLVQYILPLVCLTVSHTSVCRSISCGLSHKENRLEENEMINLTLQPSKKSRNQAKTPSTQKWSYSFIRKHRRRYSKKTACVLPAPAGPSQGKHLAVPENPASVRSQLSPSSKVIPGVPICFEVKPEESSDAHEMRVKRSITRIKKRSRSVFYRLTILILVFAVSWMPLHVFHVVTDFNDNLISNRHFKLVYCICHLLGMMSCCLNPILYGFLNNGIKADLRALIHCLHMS
- assay.info: Rat NPY5 receptor binding assay ([125I]PYY, membrane protein)
- conditions.used: [125I]PYY, read-out: rNPY5 IC50
Structures can show the parent of a compound that is named as a salt.
property: IC50 (nM)

- molecule: "CN(C)c1ccc(NC(=O)CN2CCC(n3c(=O)[nH]c4ccccc43)CC2)cc1 [Compound 353, reference compound]"
  property: "IC50"
  result.modifier: "="
  meas.value: 187
- molecule: "O=C(CN1CCC(n2c(=O)[nH]c3ccccc32)CC1)Nc1ccc(Cl)cc1 [Compound 358, reference compound]"
  property: "IC50"
  result.modifier: "="
  meas.value: 443
- molecule: "O=C(CN1CCCCC1)Nc1ccc(-c2ccccc2)cc1"
  property: "IC50"
  result.modifier: "="
  meas.value: 2900
- molecule: "O=C(CN1CCOCC1)Nc1ccc(C2CCCCC2)cc1 [Compound 362, reference compound]"
  property: "IC50"
  result.modifier: "="
  meas.value: 115
- molecule: "NC(=O)c1ccc(NC(=O)CN2CCC(n3c(=O)[nH]c4ccccc43)CC2)cc1 [Compound 350, reference compound]"
  property: "IC50"
  result.modifier: "="
  meas.value: 1400
- molecule: "CN(C(=O)CN1CCC(n2c(=O)[nH]c3ccccc32)CC1)c1ccc(C2CCCCC2)cc1"
  property: "IC50"
  result.modifier: ">"
  meas.value: 10000
- molecule: "CCc1cc(Br)c(NC(=O)CN2CCC(n3c(=O)[nH]c4ccccc43)CC2)c(Br)c1 [Compound 330, reference compound]"
  property: "IC50"
  result.modifier: "="
  meas.value: 260
- molecule: "Cl.O=C(CN1CCC(n2c(=O)[nH]c3ccccc32)CC1)Nc1ccc(-c2ccc(F)cc2)cc1 [Compound 327, hydrochloride]"
  property: "IC50"
  result.modifier: "="
  meas.value: 60
- molecule: "O=C(CN1CCC(n2c(=O)[nH]c3ccccc32)CC1)NCc1ccc(F)cc1F [Compound 332, reference compound]"
  property: "IC50"
  result.modifier: "="
  meas.value: 530
- molecule: "CCOc1ccc(NC(=O)CN2CCC(n3c(=O)[nH]c4ccccc43)CC2)cc1 [Compound 347, reference compound]"
  property: "IC50"
  result.modifier: "="
  meas.value: 130
- molecule: "O=C(CN1CCN(c2ccccc2Cl)CC1)Nc1ccc(C2CCCCC2)cc1.O=C(O)C(=O)O"
  property: "IC50"
  result.modifier: "="
  meas.value: 160
- molecule: "O=C(CN1CCC(n2c(=O)[nH]c3ccccc32)CC1)Nc1ccc2cn[nH]c2c1 [Compound 344, reference compound]"
  property: "IC50"
  result.modifier: "="
  meas.value: 1700
- molecule: "O=C(CN1CCC(n2c(=O)[nH]c3ccccc32)CC1)Nc1ccccc1Cl [Compound 348, reference compound]"
  property: "IC50"
  result.modifier: ">"
  meas.value: 10000
- molecule: "CCCc1ccc(NC(=O)CN2CCC(n3c(=O)[nH]c4ccccc43)CC2)cc1"
  property: "IC50"
  result.modifier: "="
  meas.value: 50
- molecule: "CC(C)OCCCNC(=O)CN1CCC(n2c(=O)[nH]c3ccccc32)CC1.Cl [Compound 283, hydrochloride]"
  property: "IC50"
  result.modifier: ">"
  meas.value: 10000
- molecule: "NC(=O)C1CCCN1CC(=O)Nc1ccc(C2CCCCC2)cc1 (centres unmarked) [Compound 297, hydrochloride]"
  property: "IC50"
  result.modifier: "="
  meas.value: 45
- molecule: "O=C(CN1CCC(NC(=O)Nc2ccccc2)CC1)Nc1ccc(C2CCCCC2)cc1"
  property: "IC50"
  result.modifier: "="
  meas.value: 1500
- molecule: "O=C(CN1CCC(n2c(=O)[nH]c3ccccc32)CC1)Nc1ccc([N+](=O)[O-])cc1 [Compound 355, reference compound]"
  property: "IC50"
  result.modifier: "="
  meas.value: 190
- molecule: "O=C(CN1CCC(n2c(=O)[nH]c3ccccc32)CC1)Nc1ccc(-c2cnco2)cc1 [Compound 267, hydrate]"
  property: "IC50"
  result.modifier: "="
  meas.value: 150
- molecule: "CCOc1ccc(NC(=O)CN2CCC(n3c(=O)[nH]c4ccccc43)CC2)c2ccccc12 [Compound 346, reference compound]"
  property: "IC50"
  result.modifier: "="
  meas.value: 63
- molecule: "O=C(CN1CCCCC1)Nc1ccc(C2CCCCC2)cc1"
  property: "IC50"
  result.modifier: "="
  meas.value: 630
- molecule: "CCN(CC)CCCC(C)NCC(=O)Nc1ccc(C(=O)c2ccccc2)cc1 (centres unmarked)"
  property: "IC50"
  result.modifier: "="
  meas.value: 1700
- molecule: "Cl.O=C(CN1CCC(n2c(=O)[nH]c3ccccc32)CC1)Nc1ccc2c(c1)-c1ccccc1C2=O [Compound 311, hydrochloride]"
  property: "IC50"
  result.modifier: "="
  meas.value: 0.34
- molecule: "O=C(CN1CCC(n2c(=O)[nH]c3ccccc32)CC1)Nc1ccc2c(c1)Cc1ccccc1-2"
  property: "IC50"
  result.modifier: "="
  meas.value: 4
- molecule: "O=C(CN1CCC(n2c(=O)[nH]c3ccccc32)CC1)Nc1ccc(Nc2ccccc2)cc1 [Compound 337, reference compound]"
  property: "IC50"
  result.modifier: "="
  meas.value: 108
- molecule: "CC(=O)Nc1ccc(NC(=O)CN2CCC(n3c(=O)[nH]c4ccccc43)CC2)cc1 [Compound 351, reference compound]"
  property: "IC50"
  result.modifier: "="
  meas.value: 979
- molecule: "Cl.O=C(CN1CCC(n2c(=O)[nH]c3ccccc32)CC1)Nc1ccc2oc3ccccc3c2c1 [Compound 310, hydrochloride]"
  property: "IC50"
  result.modifier: "="
  meas.value: 34
- molecule: "Cl.O=C(CN1CCC(n2c(=O)[nH]c3ccccc32)CC1)Nc1ccc(C(=O)c2ccccc2)cc1 [Compound 263, hydrochloride]"
  property: "IC50"
  result.modifier: "="
  meas.value: 3
- molecule: "CC(C)N(CCNC(=O)CN1CCC(n2c(=O)[nH]c3ccccc32)CC1)C(C)C"
  property: "IC50"
  result.modifier: ">"
  meas.value: 10000
